I'd be grateful if you could share measured GI50 for these entries.
Tested on: HCC827 cells (EGFR delE746-A750)
Assay Protocol: Cell proliferation (CellTiter Glo, 72 hr), HCC827
Format: cell-based, human
Reported Conditions: Homo sapiens; HCC827 cells, 72 hr; read-out: HCC827 GI50

(Q) For HCC827 cells (EGFR delE746-A750), give GI50 of the listed compound: C=CC(=O)Nc1cccc(Nc2nc(Nc3ccc(OC)c(OC)c3OC)ncc2Br)c1
(A) 100 to 500 nM

(Q) For HCC827 cells (EGFR delE746-A750), give GI50 of the listed compound: C=CC(=O)Nc1cccc(Oc2nc(Nc3ccc(OC)cc3OC)ncc2Cl)c1
(A) 100 to 500 nM

(Q) For HCC827 cells (EGFR delE746-A750), give GI50 of the listed compound: C=CC(=O)Nc1cccc(Nc2nc(Nc3cccc(OC)c3OC)ncc2C(F)(F)F)c1
(A) 500 to 1000 nM

(Q) For HCC827 cells (EGFR delE746-A750), give GI50 of the listed compound: C=CC(=O)Nc1cccc(Oc2nc(Nc3ccccc3OC)ncc2F)c1
(A) 100 to 500 nM

* * *

Subject Of Test: EGFR L858R/T790M (H1975 cells) (Homo sapiens (Human), UniProt P00533, L858R/T790M)
Assay Protocol: EGFR signaling immunoblot (1 hr) in H1975 cells
Format: cell-based
Reported Conditions: signaling EC50, WT (A431) vs H1975
Measurement Name: Ratio WT/mutant

(Q) Dear colleague, please send me the reported Ratio WT/mutant for C=CC(=O)Nc1cccc(Nc2nc(Nc3ccccc3OC)ncc2C(F)(F)F)c1 when you can.
(A) >50

(Q) Dear colleague, please send me the reported Ratio WT/mutant for C=CC(=O)Nc1cccc(Nc2nc(Nc3ccc(OC)c(OC)c3OC)ncc2Br)c1 when you can.
(A) >50

(Q) Dear colleague, please send me the reported Ratio WT/mutant for C=CC(=O)Nc1cccc(Nc2nc(Nc3ccc(OC)c(OC)c3OC)ncc2C(F)(F)F)c1 when you can.
(A) >50

(Q) Dear colleague, please send me the reported Ratio WT/mutant for C=CC(=O)Nc1cccc(Nc2nc(Nc3ccc(OC)cc3OC)ncc2Cl)c1 when you can.
(A) >5

(Q) Dear colleague, please send me the reported Ratio WT/mutant for C=CC(=O)Nc1cccc(Oc2nc(Nc3ccc(OC)c(OC)c3OC)ncc2C(F)(F)F)c1 when you can.
(A) >50

(Q) Dear colleague, please send me the reported Ratio WT/mutant for C=CC(=O)Nc1cccc(Oc2nc(Nc3ccc(OC)c(OC)c3OC)ncc2Cl)c1 when you can.
(A) >50

* * *

I'd be grateful if you could share measured GI50 for these entries.
Tested on: HCC827 cells (EGFR delE746-A750)
Assay Protocol: Cell proliferation (CellTiter Glo, 72 hr), HCC827
Assay type: cell-based, human
Reported Conditions: Homo sapiens; HCC827 cells, 72 hr; read-out: HCC827 GI50

(Q) Dear colleague, please send me the reported GI50 for C=CC(=O)Nc1cccc(Oc2nc(Nc3ccc(OC)c(OC)c3OC)ncc2Br)c1 [Compound I-8] when you can.
(A) 100 to 500 nM

(Q) Dear colleague, please send me the reported GI50 for C=CC(=O)Nc1cccc(Nc2nc(Nc3ccccc3OC)ncc2Br)c1 [Compound I-22] when you can.
(A) 500 to 1000 nM

(Q) Dear colleague, please send me the reported GI50 for C=CC(=O)Nc1cccc(Oc2nc(Nc3ccc(OC)c(OC)c3OC)ncc2Cl)c1 [Compound I-7] when you can.
(A) 100 to 500 nM

(Q) Dear colleague, please send me the reported GI50 for C=CC(=O)Nc1cccc(Nc2nc(Nc3ccccc3OC)ncc2Cl)c1 [Compound I-18] when you can.
(A) 500 to 1000 nM

* * *

System: H1975 cells (EGFR L858R/T790M)
Assay Protocol: Cell proliferation (CellTiter Glo, 72 hr), H1975
Format: cell-based, human
Reported Conditions: Homo sapiens, NCI-H1975; H1975 cells, 72 hr; read-out: H1975 GI50
Measurement Name: GI50

(Q) Dear colleague, please send me the reported GI50 for C=CC(=O)Nc1cccc(Nc2nc(Nc3ccc(OC)c(OC)c3OC)ncc2Cl)c1 when you can.
(A) 100 to 500 nM

(Q) Dear colleague, please send me the reported GI50 for C=CC(=O)Nc1cccc(Oc2nc(Nc3ccc(OC)cc3OC)ncc2Br)c1 when you can.
(A) 500 to 1000 nM

(Q) Dear colleague, please send me the reported GI50 for C=CC(=O)Nc1cccc(Oc2nc(Nc3ccc(OC)c(OC)c3OC)ncc2C(F)(F)F)c1 when you can.
(A) 100 to 500 nM

(Q) Dear colleague, please send me the reported GI50 for C=CC(=O)Nc1cccc(Oc2nc(Nc3ccc(OC)cc3OC)ncc2Cl)c1 when you can.
(A) > 1000 nM

(Q) Dear colleague, please send me the reported GI50 for C=CC(=O)Nc1cccc(Nc2nc(Nc3ccccc3OC)ncc2Br)c1 when you can.
(A) 500 to 1000 nM

(Q) Dear colleague, please send me the reported GI50 for C=CC(=O)Nc1cccc(Nc2nc(Nc3ccccc3OC)ncc2Cl)c1 when you can.
(A) > 1000 nM

(Q) Dear colleague, please send me the reported GI50 for C=CC(=O)Nc1cccc(Oc2nc(Nc3ccccc3OC)ncc2F)c1 when you can.
(A) > 1000 nM

(Q) Dear colleague, please send me the reported GI50 for C=CC(=O)Nc1cccc(Nc2nc(Nc3cccc(OC)c3OC)ncc2C(F)(F)F)c1 when you can.
(A) > 1000 nM

(Q) Dear colleague, please send me the reported GI50 for C=CC(=O)Nc1cccc(Nc2nc(Nc3ccc(OC)c(OC)c3OC)ncc2C(F)(F)F)c1 when you can.
(A) 100 to 500 nM

(Q) Dear colleague, please send me the reported GI50 for C=CC(=O)Nc1cccc(Oc2nc(Nc3ccc(OC)c(OC)c3OC)ncc2Cl)c1 when you can.
(A) 100 to 500 nM

(Q) Dear colleague, please send me the reported GI50 for C=CC(=O)Nc1cccc(Oc2nc(Nc3cccc(OC)c3OC)ncc2C(F)(F)F)c1 when you can.
(A) > 1000 nM

(Q) Dear colleague, please send me the reported GI50 for C=CC(=O)Nc1cccc(Nc2nc(Nc3ccccc3OC)ncc2C(F)(F)F)c1 when you can.
(A) 100 to 500 nM

(Q) Dear colleague, please send me the reported GI50 for C=CC(=O)Nc1cccc(Oc2nc(Nc3ccccc3OC)ncc2C(F)(F)F)c1 when you can.
(A) > 1000 nM
